- Test system: AR mRNA
- ASSAY NAME: Dose-dependent antisense inhibition of human AR in HuVEC cells (electroporation, qRT-PCR RTS3559, IC50)
- Format: cell-based
- REPORTED CONDITIONS: Table 36; 750.0 nM, HuVEC, electroporation, approximately 16 hours
Oligonucleotides are written 5' to 3', each unit as a sugar letter and its base; * is a phosphorothioate linkage, no mark a phosphodiester; rarer units and linkages stand in square brackets, end groups in braces. Plain capitals give the bases only. k = constrained ethyl (cEt); [5mC] = 5-methylcytosine; d = 2'-deoxy (DNA)
We use 70% as the dividing line for percent inhibition of AR, 750.0 nM: on or above the line is rule met, below is rule not met.

Is it the case that 549372 (kA*kA*kG*dT*dT*dG*dT*dA*dG*dT*dA*dG*dT*k[5mC]*kG*k[5mC]) [compound 549372] has percent inhibition of AR, 750.0 nM reaching or exceeding 70%? rule not met

* * *

- Test system: AR mRNA
- ASSAY NAME: Dose-dependent antisense inhibition of human AR in HuVEC cells (electroporation, qRT-PCR RTS3559, IC50)
- Format: cell-based
- REPORTED CONDITIONS: Table 33; HuVEC, electroporation, approximately 16 hours
Oligonucleotides are written 5' to 3', each unit as a sugar letter and its base; * is a phosphorothioate linkage, no mark a phosphodiester; rarer units and linkages stand in square brackets, end groups in braces. Plain capitals give the bases only. k = constrained ethyl (cEt); [5mC] = 5-methylcytosine; d = 2'-deoxy (DNA)
QUANTITY: IC50 (nM)
Quick note: give the figure in nM, leave out the unit.

Example cases with answers are listed next.
{"SUBSTANCE": "583843 (kG*kT*kA*d[5mC]*dA*dT*dG*d[5mC]*dA*dA*dT*d[5mC]*d[5mC]*k[5mC]*k[5mC]*k[5mC]; antisense) [compound 583843]", "UNITS SYMBOL": "nM", "IC50": 300}
{"SUBSTANCE": "583847 (kA*k[5mC]*kA*dG*d[5mC]*dG*dG*dG*dT*dG*dG*dA*dA*k[5mC]*kT*k[5mC]; antisense) [compound 583847]", "UNITS SYMBOL": "nM", "IC50": 460}
{"SUBSTANCE": "583969 (k[5mC]*k[5mC]*kT*dT*d[5mC]*dT*dT*d[5mC]*dG*dG*d[5mC]*dT*dG*kT*kG*kA; antisense) [compound 583969]", "UNITS SYMBOL": "nM", "IC50": 440}
{"SUBSTANCE": "583862 (kG*k[5mC]*kT*d[5mC]*dT*dT*dG*d[5mC]*d[5mC]*dT*dG*d[5mC]*dG*k[5mC]*kT*kG; antisense) [compound 583862]", "UNITS SYMBOL": "nM", "IC50": 410}
{"SUBSTANCE": "583892 (k[5mC]*kA*kG*d[5mC]*d[5mC]*dT*dA*dG*dG*d[5mC]*dT*d[5mC]*dT*k[5mC]*kG*k[5mC]; antisense) [compound 583892]", "UNITS SYMBOL": "nM", "IC50": 270}

Now for another entry.
Given the entry 583920 (kT*kA*kG*dT*dA*dG*dT*d[5mC]*dG*d[5mC]*dG*dA*d[5mC]*kT*k[5mC]*kT; antisense) [compound 583920] , what IC50 was observed with AR mRNA? 760

* * *

- Test system: AR mRNA
- ASSAY NAME: Dose-dependent antisense inhibition of human AR in HuVEC cells (electroporation, qRT-PCR RTS3559, IC50)
- Type: cell-based
- REPORTED CONDITIONS: Table 36; 46.9 nM, HuVEC, electroporation, approximately 16 hours
- Experimental: After a treatment period of approximately 16 hours, RNA was isolated from the cells and AR mRNA levels were measured by quantitative real-time PCR. Human AR primer probe set RTS3559 was used to measure mRNA levels. AR mRNA levels were adjusted according to total RNA content, as measured by RIBOGREEN®. […] After a treatment period of approximately 16 hours, RNA was isolated from the cells and AR mRNA levels were measured by quantitative real-time PCR. […]
Oligonucleotides are written 5' to 3', each unit as a sugar letter and its base; * is a phosphorothioate linkage, no mark a phosphodiester; rarer units and linkages stand in square brackets, end groups in braces. Plain capitals give the bases only. k = constrained ethyl (cEt); [5mC] = 5-methylcytosine; d = 2'-deoxy (DNA)
QUANTITY: percent inhibition of AR, 46.9 nM (%)
Only the number, expressed in %, is required.

As a guide, the following entries are already answered.
{"SUBSTANCE": "584329 (kG*kG*kT*dT*dA*dT*dG*dG*dT*dT*d[5mC]*dT*dG*kT*k[5mC]*kT; antisense) [compound 584329]", "percent inhibition of AR, 46.9 nM (%)": 0}
{"SUBSTANCE": "549458 (kG*kT*kT*dG*dA*dT*dT*dT*dA*dA*dT*dG*dG*kT*kT*kG) [compound 549458]", "percent inhibition of AR, 46.9 nM (%)": 1}

For the next question, use this substance.
So what's the measured percent inhibition of AR, 46.9 nM for this one? 584242 (k[5mC]*k[5mC]*kA*dT*dT*dT*dG*dT*dG*d[5mC]*d[5mC]*dA*dA*kA*k[5mC]*k[5mC]; antisense) [compound 584242] 12

* * *

- Tested on: AR mRNA
- ASSAY NAME: AR mRNA in C4-2B cells by free uptake (hAR_LTS00943)
- Format: cell-based, human
- REPORTED CONDITIONS: free uptake, dose 5.00 μM, 24 hrs
Oligonucleotides are written 5' to 3', each unit as a sugar letter and its base; * is a phosphorothioate linkage, no mark a phosphodiester; rarer units and linkages stand in square brackets, end groups in braces. Plain capitals give the bases only. k = constrained ethyl (cEt); [5mC] = 5-methylcytosine; d = 2'-deoxy (DNA)
QUANTITY: Percent inhibition of AR full-length mRNA (%)
A number alone suffices; assume %.

Solved entries:
{"SEQUENCE CODE": "ACCAAGTTTCTTCAGC (LNA gapmer, phosphorothioate backbone, further chemistry not given here) [ISIS 554221, 3-10-3 LNA gapmer, phosphorothioate backbone, targeted to exon 4 of AR; benchmark, reference compound]", "SYSTEM NAME": "AR mRNA", "READOUT NUMBER": 0}
{"SEQUENCE CODE": "CTAAACTTCCCGTGGC (k[5mC]*kT*kA*dA*dA*d[5mC]*dT*dT*d[5mC]*d[5mC]*d[5mC]*dG*dT*kG*kG*k[5mC]) [ISIS 549434, targets 3'-end of exon 8]", "SYSTEM NAME": "AR mRNA", "READOUT NUMBER": 55}
{"SEQUENCE CODE": "AAGTTGTAGTAGTCGC (kA*kA*kG*dT*dT*dG*dT*dA*dG*dT*dA*dG*dT*k[5mC]*kG*k[5mC]) [ISIS 549372, targets exon 1]", "SYSTEM NAME": "AR mRNA", "READOUT NUMBER": 80}

// next entry
Given the entry GTTGATTTAATGGTTG (all phosphorothioate, sugars by position not given here; further chemistry not fully specified) [ISIS 549458] , what Percent inhibition of AR full-length mRNA was observed with AR mRNA? 86

* * *

We begin with a simple list: items and their reported Percent inhibition of AR full-length mRNA.
- System: AR full-length mRNA
- ASSAY NAME: AR full-length mRNA in CWR22-RV1 cells (RNAiMax, RTS3559)
- Type: cell-based, human
- REPORTED CONDITIONS: dose 16.7 nM, 6 days
Oligonucleotides are written 5' to 3', each unit as a sugar letter and its base; * is a phosphorothioate linkage, no mark a phosphodiester; rarer units and linkages stand in square brackets, end groups in braces. Plain capitals give the bases only. e = 2'-O-(2-methoxyethyl) (MOE); k = constrained ethyl (cEt); [5mC] = 5-methylcytosine; d = 2'-deoxy (DNA)
Answer in %, number only, no unit symbol.

Solved entries (count: 4):
{"SEQUENCE CODE": "ACCAAGTTTCTTCAGC (LNA gapmer, phosphorothioate backbone, further chemistry not given here) [ISIS 554221, 3-10-3 LNA gapmer, phosphorothioate backbone, targeted to exon 4 of AR; benchmark, reference compound]", "UNITS SYMBOL": "%", "READOUT NUMBER": 67}
{"SEQUENCE CODE": "GTTGATTTAATGGTTG (all phosphorothioate, sugars by position not given here; further chemistry not fully specified) [ISIS 549458]", "UNITS SYMBOL": "%", "READOUT NUMBER": 61}
{"SEQUENCE CODE": "AAGTTGTAGTAGTCGC (kA*kA*kG*dT*dT*dG*dT*dA*dG*dT*dA*dG*dT*k[5mC]*kG*k[5mC]) [ISIS 549372, targets exon 1]", "UNITS SYMBOL": "%", "READOUT NUMBER": 64}
{"SEQUENCE CODE": "CTAAACTTCCCGTGGC (k[5mC]*kT*kA*dA*dA*d[5mC]*dT*dT*d[5mC]*d[5mC]*d[5mC]*dG*dT*kG*kG*k[5mC]) [ISIS 549434, targets 3'-end of exon 8]", "UNITS SYMBOL": "%", "READOUT NUMBER": 69}

May I ask what Percent inhibition of AR full-length mRNA has been recorded for TCTTATGTTTCCGAACCGTT (sugars from the 5' end e5 d10 e5, backbone and methylation of C not given here) [ISIS 347526, reference compound] ? 4

Data provenance is patent USRE48461E1.
